# Target or test system: αIIbβ3 integrin (Homo sapiens, UniProt P05106+P08514)
# Construct: chimeras comprising the extracellular domain of αvβ3, αvβ5, α5β1, and αIIbβ3 linked to the Fc domain of either mouse IgG; purchased Celltech plc (supplied, no catalogue number); host or cells: unpurified hybridoma / tissue culture supernatant from secreting cells
# Sequence (P08514 32-993 limits assumed): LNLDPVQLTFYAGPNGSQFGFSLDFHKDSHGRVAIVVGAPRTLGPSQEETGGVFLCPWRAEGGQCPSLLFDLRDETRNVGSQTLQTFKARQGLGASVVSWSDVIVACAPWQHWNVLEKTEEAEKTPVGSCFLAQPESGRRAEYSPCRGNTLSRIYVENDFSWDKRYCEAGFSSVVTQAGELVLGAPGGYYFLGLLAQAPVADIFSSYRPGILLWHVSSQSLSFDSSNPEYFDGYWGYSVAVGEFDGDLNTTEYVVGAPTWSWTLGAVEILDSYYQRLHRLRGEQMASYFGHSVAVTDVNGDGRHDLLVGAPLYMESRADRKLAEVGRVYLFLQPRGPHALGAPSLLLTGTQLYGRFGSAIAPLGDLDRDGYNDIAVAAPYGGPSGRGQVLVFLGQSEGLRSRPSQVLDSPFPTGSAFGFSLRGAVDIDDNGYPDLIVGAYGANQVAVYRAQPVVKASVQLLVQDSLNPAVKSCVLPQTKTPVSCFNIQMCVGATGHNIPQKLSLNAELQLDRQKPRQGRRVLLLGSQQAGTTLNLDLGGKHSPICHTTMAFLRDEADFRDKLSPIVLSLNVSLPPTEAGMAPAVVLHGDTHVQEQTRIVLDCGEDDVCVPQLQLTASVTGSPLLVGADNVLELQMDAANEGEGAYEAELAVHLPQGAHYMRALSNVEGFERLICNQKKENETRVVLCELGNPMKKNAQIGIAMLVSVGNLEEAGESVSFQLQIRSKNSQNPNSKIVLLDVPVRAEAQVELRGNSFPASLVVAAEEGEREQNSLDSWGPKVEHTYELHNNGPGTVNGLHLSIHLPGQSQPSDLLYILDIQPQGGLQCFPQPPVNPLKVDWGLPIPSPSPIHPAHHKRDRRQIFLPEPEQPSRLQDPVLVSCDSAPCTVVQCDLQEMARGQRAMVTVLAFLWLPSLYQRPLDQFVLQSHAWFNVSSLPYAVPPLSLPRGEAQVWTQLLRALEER
# Sequence (P05106 27-718 limits assumed): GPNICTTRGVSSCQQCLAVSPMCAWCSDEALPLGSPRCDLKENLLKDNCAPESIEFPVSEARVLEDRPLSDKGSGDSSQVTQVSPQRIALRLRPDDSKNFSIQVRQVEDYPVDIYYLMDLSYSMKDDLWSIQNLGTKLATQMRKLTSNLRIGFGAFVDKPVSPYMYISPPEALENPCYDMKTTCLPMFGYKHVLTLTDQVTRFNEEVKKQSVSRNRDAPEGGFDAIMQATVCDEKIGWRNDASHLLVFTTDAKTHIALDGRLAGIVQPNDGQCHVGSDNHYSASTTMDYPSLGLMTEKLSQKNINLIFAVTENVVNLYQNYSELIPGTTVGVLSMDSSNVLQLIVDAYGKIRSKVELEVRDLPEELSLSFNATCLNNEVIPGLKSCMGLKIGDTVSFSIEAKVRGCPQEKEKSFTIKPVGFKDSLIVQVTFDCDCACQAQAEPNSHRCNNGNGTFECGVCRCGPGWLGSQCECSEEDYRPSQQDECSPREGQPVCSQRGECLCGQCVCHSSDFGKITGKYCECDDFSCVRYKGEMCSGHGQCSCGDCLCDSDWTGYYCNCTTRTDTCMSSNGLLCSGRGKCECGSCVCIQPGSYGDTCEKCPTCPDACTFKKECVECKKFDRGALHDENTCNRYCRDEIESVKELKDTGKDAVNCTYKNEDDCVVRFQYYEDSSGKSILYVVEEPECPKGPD
# Run description: ELISA: biotinylated fibrinogen binding to captured soluble αIIbβ3-mFc in the presence of RGD peptides
# Reported conditions: Table 2, no unit printed (b200 gives same values in μM)
Measured property: IC50 (µM)
Express it in µM; write the number only.

Query block: I am curious: what IC50 value has been reported for `N=C(N)NCCC[C@@H]1NC(=O)[C@H](CCCCNC(=O)c2ccc(F)cc2)NC(=O)[C@@H](Cc2ccccc2)NC(=O)[C@H](CC(=O)O)NC(=O)CNC1=O` ?
Result block: 1.23
